# System: A2780 (Ovarian Carcinoma)
# Protocol Text: Bliss excess, mean over the matrix (fraction); higher = more synergy

Compound: CC1(C)CCC(CN2CCN(c3ccc(C(=O)NS(=O)(=O)c4ccc(NCC5CCOCC5)c([N+](=O)[O-])c4)c(Oc4cnc5[nH]ccc5c4)c3)CC2)=C(c2ccc(Cl)cc2)C1 [Venetoclax] + C[C@@H]1COCCN1C2=NC(=NC(=C2)C3(CC3)[S@](=N)(=O)C)C4=C5C=CNC5=NC=C4 [AZD6738] (first compound max 1 µM, 7x7, partner max 10 µM)
Bliss excess: -0.0548

Compound: NC1(C(=O)N[C@@H](CCO)c2ccc(Cl)cc2)CCN(c2ncnc3[nH]ccc23)CC1 [Capivasertib] + CCN(CCO)CCCOc1ccc2c(Nc3cc(CC(=O)Nc4cccc(F)c4)[nH]n3)ncnc2c1 [AZD2811] (first compound max 10 µM, 7x7, partner max 1 µM)
Bliss excess: 0.05

Compound: CN(C)CCCOc1ccc(-c2ccc3ncc4c(c3c2)n(C2CCOCC2)c(=O)n4C)cn1 [AZD0156] + CCN(CCO)CCCOc1ccc2c(Nc3cc(CC(=O)Nc4cccc(F)c4)[nH]n3)ncnc2c1 [AZD2811] (first compound max 1 µM, 7x7, partner max 1 µM)
Bliss excess: 0.0336

---

# System: GCT (Other Solid Carcinomas)
# Protocol Text: Bliss excess, mean over the matrix (fraction); higher = more synergy
The compounds listed here are annotated with their Bliss excess.

Compound: CCc1c2c(nc3ccc(O)cc13)-c1cc3c(c(=O)n1C2)COC(=O)[C@]3(O)CC [SN-38] + CN(C)CCCOc1ccc(-c2ccc3ncc4c(c3c2)n(C2CCOCC2)c(=O)n4C)cn1 [AZD0156] (first compound max 0.3 µM, 7x7, partner max 1 µM)
Measured Target: GCT (Other Solid Carcinomas)
Bliss excess: 0.0183
//
Compound: COc1cccc(OCCCN)c1-c1cc(Nc2cnc(C#N)cn2)n[nH]1 [Prexasertib] + Cc1cc2ncnn2cc1Nc1ncc2c(n1)n(C1CCOCC1)c(=O)n2C [AZD7648] (first compound max 1 µM, 7x7, partner max 10 µM)
Measured Target: GCT (Other Solid Carcinomas)
Bliss excess: 0.0365
//
Compound: C[C@@H](c1ccc2nccn2c1)n1nnc2ncc(-c3cnn(C)c3)nc21 [Savolitinib] + CN(CC[C@H](CSC1=CC=CC=C1)NC2=C(C=C(C=C2)S(=O)(=O)NC(=O)C3=CC=C(C=C3)N4CCC(CC4)[C@H](C5=CC=CC=C5C6=CC=C(C=C6)Cl)O)S(=O)(=O)C(F)(F)F)CCO [AZD4320] (first compound max 1 µM, 7x7, partner max 1 µM)
Measured Target: GCT (Other Solid Carcinomas)
Bliss excess: -0.0527
//
Compound: Cc1c2c(nn1C)CSCc1cc(n(C)n1)CSc1cc(c3ccccc3c1)OCCCc1c(C(=O)O)n(C)c3c-2c(Cl)ccc13 [AZD5991] + Cn1cnc2c(F)c(Nc3ccc(Br)cc3Cl)c(C(=O)NOCCO)cc21 [Selumetinib] (first compound max 1 µM, 7x7, partner max 3 µM)
Measured Target: GCT (Other Solid Carcinomas)
Bliss excess: 0.0058
//
Compound: COc1cccc(OCCCN)c1-c1cc(Nc2cnc(C#N)cn2)n[nH]1 [Prexasertib] + C=CCn1c(=O)c2cnc(Nc3ccc(N4CCN(C)CC4)cc3)nc2n1-c1cccc(C(C)(C)O)n1 [AZD1775] (first compound max 1 µM, partner max 1 µM)
Measured Target: GCT (Other Solid Carcinomas)
Bliss excess: 0.0294
//
Compound: NC1(C(=O)N[C@@H](CCO)c2ccc(Cl)cc2)CCN(c2ncnc3[nH]ccc23)CC1 [Capivasertib] + CC(=O)c1c(C)c2cnc(Nc3ccc(N4CCNCC4)cn3)nc2n(C2CCCC2)c1=O [Palbociclib] (first compound max 10 µM, 7x7, partner max 10 µM)
Measured Target: GCT (Other Solid Carcinomas)
Bliss excess: -0.0569
//
Compound: CC(=O)c1c(C)c2cnc(Nc3ccc(N4CCNCC4)cn3)nc2n(C2CCCC2)c1=O [Palbociclib] + Cc1c2c(nn1C)CSCc1cc(n(C)n1)CSc1cc(c3ccccc3c1)OCCCc1c(C(=O)O)n(C)c3c-2c(Cl)ccc13 [AZD5991] (first compound max 10 µM, 7x7, partner max 1 µM)
Measured Target: GCT (Other Solid Carcinomas)
Bliss excess: -0.049

---

The molecules listed here are annotated with their combination Emax.
# Test system: WM1552C (Melanoma)
# Protocol Text: combination Emax (second highest fraction inhibited in the dose matrix, 72 h); higher = more inhibition; extreme values may be limits of the assay

Molecule: C[C@@H]1COCCN1c1cc(C2([S@](C)(=N)=O)CC2)nc(-c2ccnc3[nH]ccc23)n1 [AZD6738] + Nc1ccn([C@@H]2O[C@H](CO)[C@@H](O)C2(F)F)c(=O)n1 [Gemcitabine] (first compound max 10 µM, 7x7, partner max 0.3 µM)
combination Emax: 0.868

Molecule: CS(=O)(=O)CCNCc1ccc(-c2ccc3ncnc(Nc4ccc(OCc5cccc(F)c5)c(Cl)c4)c3c2)o1 [Lapatinib] + C[C@@H](Oc1cc(-c2cnn(C3CCNCC3)c2)cnc1N)c1c(Cl)ccc(F)c1Cl [Crizotinib] (first compound max 10 µM, 7x7, partner max 10 µM)
combination Emax: 0.921

Molecule: Cc1c2c(nn1C)CSCc1cc(n(C)n1)CSc1cc(c3ccccc3c1)OCCCc1c(C(=O)O)n(C)c3c-2c(Cl)ccc13 [AZD5991] + C[C@@H]1COCCN1C2=NC(=NC(=C2)C3(CC3)[S@](=N)(=O)C)C4=C5C=CNC5=NC=C4 [AZD6738] (first compound max 1 µM, 7x7, partner max 10 µM)
combination Emax: 0.836

Molecule: C=CCn1c(=O)c2cnc(Nc3ccc(N4CCN(C)CC4)cc3)nc2n1-c1cccc(C(C)(C)O)n1 [AZD1775] + O=C(c1cc(Cc2n[nH]c(=O)c3ccccc23)ccc1F)N1CCN(C(=O)C2CC2)CC1 [Olaparib] (first compound max 1 µM, partner max 10 µM)
combination Emax: 0.486

Molecule: Cc1cc2ncnn2cc1Nc1ncc2c(n1)n(C1CCOCC1)c(=O)n2C [AZD7648] + CN(C)CCCOc1ccc(-c2ccc3ncc4c(c3c2)n(C2CCOCC2)c(=O)n4C)cn1 [AZD0156] (first compound max 10 µM, 7x7, partner max 1 µM)
combination Emax: 0.29

Molecule: CN(C)CCCOc1ccc(-c2ccc3ncc4c(c3c2)n(C2CCOCC2)c(=O)n4C)cn1 [AZD0156] + O=C(c1cc(Cc2n[nH]c(=O)c3ccccc23)ccc1F)N1CCN(C(=O)C2CC2)CC1 [Olaparib] (first compound max 3 µM, partner max 3 µM)
combination Emax: 0.324

Molecule: COc1nnc2ccc(N3CCC(c4ccc(OCCN5CCN(C)C(=O)[C@H]5C)cc4)CC3)nn12 [AZD5153] + C=CCn1c(=O)c2cnc(Nc3ccc(N4CCN(C)CC4)cc3)nc2n1-c1cccc(C(C)(C)O)n1 [AZD1775] (first compound max 1 µM, partner max 1 µM)
combination Emax: 0.439

Molecule: CCN(CCO)CCCOc1ccc2c(Nc3cc(CC(=O)Nc4cccc(F)c4)[nH]n3)ncnc2c1 [AZD2811] + O=C(c1cc(Cc2n[nH]c(=O)c3ccccc23)ccc1F)N1CCN(C(=O)C2CC2)CC1 [Olaparib] (first compound max 1 µM, 7x7, partner max 10 µM)
combination Emax: 0.377

Molecule: C=CCn1c(=O)c2cnc(Nc3ccc(N4CCN(C)CC4)cc3)nc2n1-c1cccc(C(C)(C)O)n1 [AZD1775] + Nc1ccn([C@@H]2O[C@H](CO)[C@@H](O)C2(F)F)c(=O)n1 [Gemcitabine] (first compound max 1 µM, partner max 0.3 µM)
combination Emax: 0.72

Molecule: Cc1c2c(nn1C)CSCc1cc(n(C)n1)CSc1cc(c3ccccc3c1)OCCCc1c(C(=O)O)n(C)c3c-2c(Cl)ccc13 [AZD5991] + Cc1cc2ncnn2cc1Nc1ncc2c(n1)n(C1CCOCC1)c(=O)n2C [AZD7648] (first compound max 1 µM, 7x7, partner max 10 µM)
combination Emax: 0.71

Molecule: CN(CCO)CC[C@H](CSc1ccccc1)Nc1ccc(S(=O)(=O)NC(=O)c2ccc(N3CCC([C@@H](O)c4ccccc4-c4ccc(Cl)cc4)CC3)cc2)cc1S(=O)(=O)C(F)(F)F [AZD4320] + C[C@@H](Nc1cc(F)cc(F)c1)c1cc(C(=O)N(C)C)cc2c(=O)cc(N3CCOCC3)oc12 [AZD8186] (first compound max 1 µM, 7x7, partner max 3 µM)
combination Emax: 0.424

---

# Test system: 5637 (Bladder Carcinoma)
# Protocol Text: Bliss excess, mean over the matrix (fraction); higher = more synergy
Measured Property: Bliss excess

Molecule: Cc1cc2ncnn2cc1Nc1ncc2c(n1)n(C1CCOCC1)c(=O)n2C [AZD7648] + O=C(c1cc(Cc2n[nH]c(=O)c3ccccc23)ccc1F)N1CCN(C(=O)C2CC2)CC1 [Olaparib] (first compound max 10 µM, 7x7, partner max 10 µM)
Measured Property: Bliss excess
Observed Value: -0.0198

Molecule: CN(C)CCCOc1ccc(-c2ccc3ncc4c(c3c2)n(C2CCOCC2)c(=O)n4C)cn1 [AZD0156] + O=C(c1cc(Cc2n[nH]c(=O)c3ccccc23)ccc1F)N1CCN(C(=O)C2CC2)CC1 [Olaparib] (first compound max 3 µM, partner max 3 µM)
Measured Property: Bliss excess
Observed Value: 0.138

Molecule: C=CCn1c(=O)c2cnc(Nc3ccc(N4CCN(C)CC4)cc3)nc2n1-c1cccc(C(C)(C)O)n1 [AZD1775] + C[C@@H]1COCCN1C2=NC(=NC(=C2)C3(CC3)[S@](=N)(=O)C)C4=C5C=CNC5=NC=C4 [AZD6738] (first compound max 1 µM, partner max 10 µM)
Measured Property: Bliss excess
Observed Value: 0.007

Molecule: Cc1c2c(nn1C)CSCc1cc(n(C)n1)CSc1cc(c3ccccc3c1)OCCCc1c(C(=O)O)n(C)c3c-2c(Cl)ccc13 [AZD5991] + C[C@@H](Nc1cc(F)cc(F)c1)c1cc(C(=O)N(C)C)cc2c(=O)cc(N3CCOCC3)oc12 [AZD8186] (first compound max 1 µM, 7x7, partner max 3 µM)
Measured Property: Bliss excess
Observed Value: -0.036
